Measured inhibition of individual entries
- MEASUREMENT TARGET: CAMK2D (human) (UniProt Q13557)
- Sequence (Q13557 whole entry, looked up): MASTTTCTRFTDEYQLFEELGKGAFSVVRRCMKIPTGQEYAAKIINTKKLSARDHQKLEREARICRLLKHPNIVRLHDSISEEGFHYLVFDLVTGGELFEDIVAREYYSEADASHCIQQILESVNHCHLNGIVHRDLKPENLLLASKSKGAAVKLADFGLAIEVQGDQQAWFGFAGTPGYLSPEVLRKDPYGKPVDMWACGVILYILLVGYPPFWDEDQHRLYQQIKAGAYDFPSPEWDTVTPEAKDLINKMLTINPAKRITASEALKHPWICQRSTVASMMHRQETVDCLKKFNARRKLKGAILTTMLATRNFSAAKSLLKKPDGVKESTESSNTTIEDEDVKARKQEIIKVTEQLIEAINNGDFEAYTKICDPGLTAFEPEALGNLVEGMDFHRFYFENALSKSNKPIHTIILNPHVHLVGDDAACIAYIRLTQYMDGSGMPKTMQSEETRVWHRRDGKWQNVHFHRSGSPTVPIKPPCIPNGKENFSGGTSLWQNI
- EXPERIMENT SUMMARY: Caliper, Mobility shift assay off-chip
- REPORTED CONDITIONS: compound 1.0 µM

| COMPOUND | VALUE UNITS | inhibition |
| --- | --- | --- |
| Cn1cc(-c2cnc3ccc4ccc(CS(=O)(=O)NCC5CCCCN5)cc4c(=O)c3c2)cn1 (stereo not given) | % | 15.1 |
| Cn1cc(-c2cnc3ccc4ccc(CS(=O)(=O)CCc5ccccn5)cc4c(=O)c3c2)cn1 | % | -3.6 |
| Cn1cc(-c2cnc3ccc4ccc(CS(N)(=O)=O)cc4c(=O)c3c2)cn1 | % | 25.1 |
| CN(c1ccc2ccc3ncc(-c4cnn(C)c4)cc3c(=O)c2c1)S(=O)(=O)NCc1ccccn1 | % | -1.3 |
| O=C(CCc1ccc2ccc3ncc(C4CCNCC4)cc3c(=O)c2c1)NCc1ccccn1 | % | -4.6 |
